# METHOD: chemical genetic growth profiling, strain panel (AID 1159580);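 also: tested at 20 µM; growth read once vehicle control cultures reached saturation at 30 °C; 1 = growth at the plate median or of vehicle wells; lower values mean less growth of the strain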
# ASSAY_CONTEXT: S. cerevisiae deletion strains, growth OD, locus YKR001C, strain vps1
Out of some 5,500 compounds screened, about 2,000 (36%) were called active. Roughly 18% stayed inconclusive and do not appear here. Rule as the data show it: active = normalized growth mostly below about 0.91 (no sharp cut-off); inconclusive = no clear call, values can overlap the other calls; inactive = mostly above about 0.92. The list shows a part of the results.
Permitted responses: 1 for active, -1 for inactive

Example entries and their recorded answers appear below.
q: Recorded test call requested for CC(=O)OC1CCC2(C)C3CC(=O)C4(C)C(CC5OC6(CCC(C)CO6)[C@@H](C)C54)C3CC[C@H]2C1 (some centres not stated)
a: -1

q: Hi, sorry to bother you, what did the test record for "CN1CCN(CCCN2c3ccccc3Sc3ccc(C(F)(F)F)cc32)CC1" ?
a: 1

q: What was the test verdict on CCC1C(=O)OCC1Cc1cncn1C (configuration not stated) ?
a: -1

q: Please state the recorded outcome for this compound: "NC(N)=NC(N)=Nc1ccccc1"
a: -1

q: Query: recorded result category for "CC1(C)C=Cc2cc3ccc(=O)oc3cc2O1" in this test
a: -1

q: What is the recorded call for this compound in the test? "CN1CCN(CC(=O)N2c3ccccc3C(=O)Nc3cccnc32)CC1"
a: -1

q: Please state the recorded outcome for this compound: "OCCN1CCN(CCCN2c3ccccc3Sc3ccc(C(F)(F)F)cc32)CC1"
a: 1

q: Look up the recorded call for C=C(C)[C@@H]1CC[C@]2(CO)CC[C@]3(C)[C@H](CCC4[C@@]5(C)CC[C@H](O)C(C)(C)C5CC[C@]43C)C12 (some centres not stated) in this test.
a: -1

q: I would be grateful if you could indicate the recorded call for "NC(=O)N1c2ccccc2C=Cc2ccccc21" .
a: -1

q: Please state the recorded outcome for this compound: "CC(=O)c1cc2c(cc1O)OC(C)(C)C=C2"
a: -1

More entries:
q: Which outcome was entered for the compound CC(=O)OCC(=O)[C@@]1(O)CCC2C3CCC4=CC(=O)CC[C@]4(C)C3[C@@H](O)C[C@@]21C (some centres not stated) in this test?
a: -1

q: Check the results log: what was the call for COC1(C)CCC2OC2(C)CCC2C1CC2(C)C (configuration not stated) ?
a: -1

q: Dear all, I need the recorded test outcome for "O=C1c2ccccc2C(=O)C1c1ccccc1" , thank you.
a: -1

q: In this assay, the call recorded for NC1C[C@H]1c1ccccc1 (some centres not stated) was what?
a: -1
